# system-under-test: DLG4_3, P78352
# Sequence (P78352 306-403): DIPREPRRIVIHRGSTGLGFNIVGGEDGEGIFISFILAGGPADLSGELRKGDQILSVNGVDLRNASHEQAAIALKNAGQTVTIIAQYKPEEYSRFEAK
# method-summary: holdup assay
# Parameters: key: below the threshold = too weak to quantify, mostly under pKd 3.1 to 4
# measurement-parameters: plain residues with an end cap or a label only (N-terminal biotin on a linker: ado-ado)
metric: pKd

# example entries with known answers
>  <binder>
RDYTQSSSSL [GRM5, P41594]

>  <reading>
below the threshold

$$$$
>  <binder>
MLPANYVEAI [NEB, P20929]

>  <reading>
below the threshold

$$$$
>  <binder>
RGKNRRQSIF [CDK18, Q07002]

>  <reading>
3.7

$$$$
>  <binder>
KEKASTETEC [TRPM1, Q7Z4N2]

>  <reading>
3.65

$$$$
>  <binder>
VKQYADVEGF [HNRNPK, P61978;P61978-2]

>  <reading>
below the threshold

$$$$
>  <binder>
VCMGDHWFDV [PRKN, O60260]

>  <reading>
below the threshold

$$$$
>  <binder>
QKASRNESTF [POLR1D, P0DPB6]

>  <reading>
below the threshold

$$$$
>  <binder>
TNSKQGETTV [FZD1, Q9UP38]

>  <reading>
3.76

$$$$

Looking up PAALPESTHM [SLC9A3, P48764] , I see its pKd listed as below the threshold

Looking up QLGSPTADLA [SIPA1, Q96FS4] , I see its pKd listed as below the threshold

Looking up AKADAQESRL [PLCB2, Q00722] , I see its pKd listed as below the threshold
